The following compounds are shown together with reported IC50 values.
Biological target: KRAS(G12D)/SOS1 (Homo sapiens, UniProt P01116, G12D)
Sequence (P01116 1-188 isoform P01116-2 G12D): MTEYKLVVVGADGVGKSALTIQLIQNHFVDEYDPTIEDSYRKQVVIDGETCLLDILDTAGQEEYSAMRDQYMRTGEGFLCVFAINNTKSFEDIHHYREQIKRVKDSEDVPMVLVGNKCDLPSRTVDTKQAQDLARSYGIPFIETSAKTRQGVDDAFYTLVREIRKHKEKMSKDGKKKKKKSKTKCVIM
Assay: KRAS(G12D)/SOS1 homogeneous time-resolved fluorescence (HTRF) assay
Conditions: absence of GTP; 4° C., 3 hr

Example cases with answers are listed next.
{"COMPOUND": "C#Cc1c(F)ccc2cc(O)cc(-c3ncc4c(N5CC6CCC(C5)N6)nc(OCC5(CN6CCN(CC7CCN(Cc8ccc(-n9c(C(=O)NCC(F)(F)F)nnc9-c9cc(C(C)C)c(O)cc9O)cc8)CC7)CC6)CC5)nc4c3F)c12 [Compound 154]", "IC50": "< 100 nM"}
{"COMPOUND": "CC(C)c1cc(-c2nnc(O)n2-c2ccc(CN(C)[C@@H]3CN4CCC[C@]4(COc4nc(N5CC6CCC(C5)N6)c5cnc(-c6cc(O)cc7ccccc67)c(F)c5n4)C3)cc2)c(O)cc1O [Compound 43]", "IC50": "< 100 nM"}
{"COMPOUND": "CC(C)c1cc(-c2nnc(O)n2-c2ccc(CN3CCN([C@H]4C[C@@H](COc5nc(N6CC7CCC(C6)N7)c6cnc(-c7cccc8ccccc78)c(F)c6n5)N(C)C4)CC3)cc2)c(O)cc1O [Compound 30]", "IC50": "> 1000 nM"}
{"COMPOUND": "CC(C)c1cc(C(=O)N2Cc3ccc(CN(C)[C@H]4CN5CCC[C@@]5(COc5nc(N6CC7CCC(C6)N7)c6cnc(-c7cc(O)cc8ccccc78)c(F)c6n5)C4)cc3C2)c(O)cc1O [Compound 44]", "IC50": "< 100 nM"}
{"COMPOUND": "C#Cc1c(F)ccc2cc(O)cc(-c3nc(OC)c4c(N5CC6CCC(C5)N6)nc(OCC5(CN6CCOC(CNCc7ccc8c(c7)CN(C(=O)c7cc(C(C)C)c(O)cc7O)C8)C6)CC5)nc4c3F)c12 (stereo not drawn) [Compound 192]", "IC50": "> 1000 nM"}
{"COMPOUND": "CC(C)c1cc(-c2nnc(C(=O)NC(C)C(F)(F)F)n2-c2ccc(CN3CCN([C@H]4C[C@@H](COc5nc(N6CC7CCC(C6)N7)c6cnc(-c7cccc8cccc(F)c78)c(F)c6n5)N(C)C4)CC3)cc2)c(O)cc1O (stereo partly drawn) [Compound 93]", "IC50": "100 to 1000 nM"}
{"COMPOUND": "Cc1cccc(-c2ncc3c(N4CC5CCC(C4)N5)nc(OC[C@@H]4C[C@H](N5CCN(Cc6ccc(-n7c(C(=O)NC(C)C(F)(F)F)nnc7-c7cc(C(C)C)c(O)cc7O)cc6)CC5)CN4C)nc3c2F)c1C (stereo partly drawn) [Compound 82]", "IC50": "> 1000 nM"}
{"COMPOUND": "CCNC(=O)c1nnc(-c2cc(C(C)C)c(O)cc2O)n1-c1ccc(CN2CCN(C[C@H]3CC[C@@H](COc4nc(N5CC6CCC(C5)N6)c5cnc(-c6cccc7ccccc67)c(F)c5n4)N3C)CC2)cc1 [Compound 66]", "IC50": "100 to 1000 nM"}
{"COMPOUND": "C#Cc1cccc2cc(O)cc(-c3ncc4c(N5CC6CCC(C5)N6)nc(OCC5(CN6CCN(CC7CCN(c8ccc(-n9c(C(=O)NCC)nnc9-c9cc(C(C)C)c(O)cc9O)cc8)CC7)CC6)CC5)nc4c3F)c12 [Compound 124]", "IC50": "< 100 nM"}
{"COMPOUND": "CC(C)c1cc(C(=O)N2Cc3ccc(CN4CCC(C(=O)N(C)[C@H]5CN6CCC[C@@]6(COc6nc(N7CC8CCC(C7)N8)c7cnc(-c8cc(O)cc9ccccc89)c(F)c7n6)C5)CC4)cc3C2)c(O)cc1O [Compound 49]", "IC50": "< 100 nM"}

Entry under test: C#Cc1c(F)ccc2cc(O)cc(-c3ncc4c(N5CC6CCC(C5)N6)nc(OCC5(CN6CCC(N7CCN(Cc8ccc(-n9c(C(=O)NC(C)C(F)(F)F)nnc9-c9cc(C(C)C)c(O)cc9O)cc8)CC7)CC6)CC5)nc4c3F)c12 (stereo not drawn) [Compound 181] . Its IC50 was < 100 nM

Please fill in: IC50 reported for C#Cc1c(F)ccc2cc(O)cc(-c3ncc4c(N5CC6CCC(C5)N6)nc(OC5CN(Cc6ccc(-n7c(C(=O)NC(C)C(F)(F)F)nnc7-c7cc(C(C)C)c(O)cc7O)cc6)C5)nc4c3F)c12 (stereo not drawn) [Compound 176] = 100 to 1000 nM

Record CC(C)c1cc(-c2nnc(O)n2-c2ccc(CN(C)[C@@H]3CN4CCC[C@]4(COc4nc(N5CC6CCC(C5)N6)c5cnc(-c6cc(O)cc7ccccc67)c(F)c5n4)C3)cc2)c(O)cc1O [Compound 42] . Reported IC50: < 100 nM

Noted for CC(C)c1cc(-c2nnc(O)n2-c2ccc(CN3CCN([C@H]4C[C@@H](COc5nc(N6CC7CCC(C6)N7)c6cnc(-c7cc(O)cc8ccccc78)c(F)c6n5)N(C)C4)CC3)cc2)c(O)cc1O [Compound 33] : its IC50 reads < 100 nM

Field IC50 (entry C#Cc1cccc2cccc(-c3ncc4c(N5CC6CCC(C5)N6)nc(OCC5(CN6CCN(C(=O)C7CCN(Cc8ccc(-n9c(C(=O)NCC)nnc9-c9cc(C(C)C)c(O)cc9O)cc8)CC7)CC6)CC5)nc4c3F)c12 [Compound 19] ) reads < 100 nM

Form: compound = C#Cc1c(F)ccc2cc(O)cc(-c3ncc4c(N5CC6CCC(C5)N6)nc(OCC5(CN6CCC(N7CCN(Cc8ccc9c(c8)CN(C(=O)c8cc(C(C)C)c(O)cc8O)C9)CC7)CC6)CC5)nc4c3F)c12 [Compound 180] ; IC50 = < 100 nM

Entry CNC(=O)c1nnc(-c2cc(C)c(O)cc2O)n1-c1ccc(CN2CCN(C(=O)C3CCN([C@H]4C[C@@H](COc5nc(C6CC7CCC(C6)N7)c6cnc(-c7cccc8cccc(Cl)c78)c(F)c6n5)N(C)C4)CC3)CC2)cc1 (stereo partly drawn) [Compound 8] — recorded IC50 = < 100 nM

In plain terms, CCNC(=O)c1nnc(-c2cc(C(C)C)c(O)cc2O)n1-c1ccc(CN2CCN([C@H]3C[C@@H](COc4nc(N5CC6CCC(C5)N6)c5cnc(-c6cccc7cccc(F)c67)c(F)c5n4)N(C)C3)CC2)cc1 [Compound 77] has a documented IC50 of 100 to 1000 nM

====

Reported pIC50 values follow for various compounds
Target: KRAS(G12D)/SOS1 (Homo sapiens, UniProt P01116, G12D)
Test: KRAS(G12D)/SOS1 homogeneous time-resolved fluorescence (HTRF) assay
Conditions: absence of GTP; 4° C., 3 hr
pIC50: −log10 of the molar value.

Solved cases below.
{"COMPOUND": "CC(C)c1cc(C(=O)N2Cc3ccc(CN4CCC(CN5CCN(CC6(COc7nc(N8CC9CCC(C8)N9)c8cnc(-c9cccc%10ccccc9%10)c(F)c8n7)CC6)CC5)CC4)cc3C2)c(O)cc1O", "TEST TARGET": "KRAS(G12D)/SOS1 (Homo sapiens, UniProt P01116, G12D)", "pIC50": "> 7.00"}
{"COMPOUND": "C#Cc1cccc2cc(O)cc(-c3ncc4c(N5CC6CCC(C5)N6)nc(OC[C@@H]5C[C@H](CN6CCN(Cc7ccc(-n8c(C(=O)NCC(F)(F)F)nnc8-c8cc(C(C)C)c(O)cc8O)cc7)CC6)CN5C)nc4c3F)c12", "TEST TARGET": "KRAS(G12D)/SOS1 (Homo sapiens, UniProt P01116, G12D)", "pIC50": "> 7.00"}
{"COMPOUND": "COc1cccc2cccc(-c3ncc4c(N5CC6CCC(C5)N6)nc(OC[C@@H]5C[C@H](N6CCN(C(=O)C7CCN(Cc8ccc9c(c8)CN(C(=O)c8cc(C(C)C)c(O)cc8O)C9)CC7)CC6)CN5C)nc4c3F)c12", "TEST TARGET": "KRAS(G12D)/SOS1 (Homo sapiens, UniProt P01116, G12D)", "pIC50": "< 6.00"}
{"COMPOUND": "CCc1cc(-c2nnc(C(=O)NC)n2-c2ccc(CN3CCN(C(=O)C4CCN([C@H]5C[C@@H](COc6nc(C7CC8CCC(C7)N8)c7cnc(-c8cccc9cccc(Cl)c89)c(F)c7n6)N(C)C5)CC4)CC3)cc2)c(O)cc1O (stereo partly drawn)", "TEST TARGET": "KRAS(G12D)/SOS1 (Homo sapiens, UniProt P01116, G12D)", "pIC50": "6.00 to 7.00"}
{"COMPOUND": "C#Cc1c(F)ccc2cc(O)cc(-c3ncc4c(N5CC6CCC(C5)N6)nc(OCC5(CN6CCN(CC7CN(Cc8ccc(-n9c(C(=O)NC(C)C(F)(F)F)nnc9-c9cc(C(C)C)c(O)cc9O)cc8)C7)CC6)CC5)nc4c3F)c12 (stereo not drawn)", "TEST TARGET": "KRAS(G12D)/SOS1 (Homo sapiens, UniProt P01116, G12D)", "pIC50": "> 7.00"}

// pIC50 value for Cc1c(F)cccc1-c1ncc2c(N3CC4CCC(C3)N4)nc(OC[C@@H]3C[C@H](N4CCN(Cc5ccc6c(c5)CN(C(=O)c5cc(C(C)C)c(O)cc5O)C6)CC4)CN3C)nc2c1F : < 6.00

get_value(item= C#Cc1c(F)ccc2cc(O)cc(-c3nc(OC)c4c(N5CC6CCC(C5)N6)nc(OCC5(CN6CCC(C7CCN(Cc8ccc9c(c8)CN(C(=O)c8cc(C(C)C)c(O)cc8O)C9)CC7)CC6)CC5)nc4c3F)c12 , readout=pIC50) returns > 7.00

compound C#Cc1cccc2cccc(-c3ncc4c(N5CC6CCC(C5)N6)nc(OC[C@@H]5CC[C@H](CN6CCN(C(=O)C7CCN(Cc8ccc(-n9c(C(=O)NCC)nnc9-c9cc(C(C)C)c(O)cc9O)cc8)CC7)CC6)N5C)nc4c3F)c12 , pIC50 observed: > 7.00

Per the record, CC(C)c1cc(C(=O)N2Cc3ccc(CN4CCC(C(=O)N5CCN([C@H]6C[C@@H](COc7nc(N8CC9CCC(C8)N9)c8cnc(-c9cccc%10cccc(F)c9%10)c(F)c8n7)N(C)C6)CC5)CC4)cc3C2)c(O)cc1O has pIC50 of 6.00 to 7.00
